Measurement Protocol: Release of prodrug into active drug in HEPES buffer
Format: physicochemical
Condition Context: HEPES buffer pH 7.4, 37 °C, HPLC; read-out: T1/2 (conversion of prodrug 6 into compound 3) (converted)
Experimental Endpoint: half-life at 10 µg/mL
Returns: string containing the number followed by the unit.

QUERY: I am curious: what half-life at 10 µg/mL value has been reported for COc1cc(C=CC(=O)OCC2=CCCC3(C)OC3C3OC(=O)C(CN(C)C)C3CC2)ccc1O (stereo not shown) ?
RESULT: 2 h
